# TARGET UNDER TEST: α1β1δ GABAA receptors (Rattus norvegicus, UniProt P15431+P62813)
# Construct: expressed in transfected cells; host or cells: Xenopus laevis oocytes, mRNA injected
# Sequence (P62813 28-455): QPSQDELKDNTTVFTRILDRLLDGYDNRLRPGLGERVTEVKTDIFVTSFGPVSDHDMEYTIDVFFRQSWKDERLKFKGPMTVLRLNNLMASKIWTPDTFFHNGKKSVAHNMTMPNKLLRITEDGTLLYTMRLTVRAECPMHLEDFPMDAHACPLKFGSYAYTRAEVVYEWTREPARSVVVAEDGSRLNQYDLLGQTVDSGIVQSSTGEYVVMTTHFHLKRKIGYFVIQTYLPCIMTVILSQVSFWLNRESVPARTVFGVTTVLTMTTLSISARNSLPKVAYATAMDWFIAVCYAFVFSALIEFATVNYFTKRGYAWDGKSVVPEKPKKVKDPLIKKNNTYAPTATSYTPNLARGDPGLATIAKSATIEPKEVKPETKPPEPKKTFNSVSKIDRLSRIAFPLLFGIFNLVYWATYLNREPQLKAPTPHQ
# Sequence (P15431 26-474): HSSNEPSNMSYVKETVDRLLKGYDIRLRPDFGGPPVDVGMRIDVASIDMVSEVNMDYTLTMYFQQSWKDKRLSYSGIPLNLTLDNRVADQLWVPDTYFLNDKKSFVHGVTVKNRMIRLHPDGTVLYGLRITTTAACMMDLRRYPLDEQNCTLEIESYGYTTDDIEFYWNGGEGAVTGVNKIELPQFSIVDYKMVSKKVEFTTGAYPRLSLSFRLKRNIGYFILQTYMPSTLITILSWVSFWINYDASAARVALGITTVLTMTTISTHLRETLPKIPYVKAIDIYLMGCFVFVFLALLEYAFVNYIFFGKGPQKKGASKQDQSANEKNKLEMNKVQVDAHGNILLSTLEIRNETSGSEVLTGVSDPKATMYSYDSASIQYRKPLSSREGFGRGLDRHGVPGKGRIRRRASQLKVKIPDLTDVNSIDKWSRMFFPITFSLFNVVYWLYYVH
# Sequence (P18506 17-449 partner limits assumed): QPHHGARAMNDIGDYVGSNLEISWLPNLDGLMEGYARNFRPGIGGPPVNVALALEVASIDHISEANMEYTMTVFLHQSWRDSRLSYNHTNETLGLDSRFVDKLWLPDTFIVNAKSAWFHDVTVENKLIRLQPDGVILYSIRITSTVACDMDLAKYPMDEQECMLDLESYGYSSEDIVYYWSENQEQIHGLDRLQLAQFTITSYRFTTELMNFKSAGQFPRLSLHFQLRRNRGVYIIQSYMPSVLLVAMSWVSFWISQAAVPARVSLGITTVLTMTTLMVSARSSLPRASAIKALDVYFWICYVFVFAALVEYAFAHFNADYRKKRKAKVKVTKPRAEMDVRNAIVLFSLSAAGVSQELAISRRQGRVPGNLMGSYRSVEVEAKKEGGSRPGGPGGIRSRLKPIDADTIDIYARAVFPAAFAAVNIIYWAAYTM
# ASSAY REMARKS: Two electrode voltage clamp in Xenopus laevis oocytes, α1β1δ
# Assay type: cell-based
# REPORTED CONDITIONS: α1β1δ; co-applied with GABA EC3-5; read-out: EC50
pEC50: −log10 of the molar value.
OBSERVATION TYPE: pEC50

INSERT INTO results (compound, observation_type, recorded_measurement) VALUES
  ('COc1ccc(-n2nc3c4cc(Cl)ccc4[nH]cc-3c2=O)cc1 [Compound 1]', 'pEC50', 7.15);
